Give pIC50 for every item shown.
Test system: SARS-COV-2
Test: microbe, parasite or virus in culture
Type: cell-based
Details: Severe acute respiratory syndrome coronavirus 2; Vero cells, 24 hours infection; read-out: SARS-COV-2 inhibition (IC50)
Give bare numbers, as −log10 of the molar value.

Consider the reported pIC50 for these molecules:
1) CCCCCCOCCN(CCCCCC)c1ncc(-c2c3c(cc4cc(OC)c(OC)cc24)COC3=O)cn1 :: 4.71
2) COc1cc2cc3c(c(-c4cnc(NCCCn5ccnc5)nc4)c2cc1OC)C(=O)OC3 :: 4.51

Now consider a different molecule.
stdin: Quickly give me recorded pIC50 for COc1cc2cc3c(c(-c4ccc(N(C)Cc5ccccc5C(F)(F)F)nc4)c2cc1OC)C(=O)OC3
stdout: 5.58

----------
Give IC50 for every item shown.
Test system: SARS-COV-2
Assay: microbe, parasite or virus in culture
Type: cell-based
Details: Severe acute respiratory syndrome coronavirus 2; Vero cells, 24 hours infection; read-out: SARS-COV-2 inhibition (IC50)

Consider the reported IC50 for these molecules:
1) COc1cc2cc3c(c(-c4ccc(F)nc4)c2cc1OC)C(=O)OC3 [Example 35] :: > 50 µM
2) COc1cc2cc3c(c(-c4cnc(N5CCC[C@H]5C(N)=O)nc4)c2cc1OC)C(=O)OC3 [Example 49] :: > 50 µM
3) COCCN(CCOC)c1ncc(-c2c3c(cc4cc(OC)c(OC)cc24)COC3=O)cn1 [Example 72] :: 30.4 µM

Now consider a different molecule.
stdin: Quickly give me recorded IC50 for COc1cc2cc3c(c(-c4ccnc(F)c4)c2cc1OC)C(=O)OC3 [Example 186]
stdout: > 50 µM

----------
Tested on: SARS-COV-2
Assay: microbe, parasite or virus in culture
Assay type: cell-based
Set-up: unit not given here
Details: SARS-COV-2; values >50 assumed to be 50
Give SI (Selectivity Index, CC50/IC50) for every item shown.
Give bare numbers.

Consider the reported SI (Selectivity Index, CC50/IC50) for these compounds:
1. COc1cc2cc3c(c(-c4ccc(N(C)c5ccccc5)nc4)c2cc1OC)C(=O)OC3 :: 162.21
2. COc1cc2cc3c(c(-c4ccc(N5CCC6(CC5)OCCO6)nc4)c2cc1OC)C(=O)OC3 :: 18.50

Provide SI (Selectivity Index, CC50/IC50) for all items below, preserving their order.
1. COC(=O)CN(C)c1ncc(-c2c3c(cc4cc(OC)c(OC)cc24)COC3=O)cn1.Cl
2. COc1cc2cc3c(c(-c4cnc(N(C)C5CCOCC5)nc4)c2cc1OC)C(=O)OC3
3. COCCN(CCOC)c1ncc(-c2c3c(cc4cc(OC)c(OC)cc24)COC3=O)cn1
4. COc1cc2cc3c(c(-c4ccc(N(C)C)c([N+](=O)[O-])c4)c2cc1OC)C(=O)OC3.Cl
5. CCN(c1ncc(-c2c3c(cc4cc(OC)c(OC)cc24)COC3=O)cn1)C(C)C.Cl
6. COc1cc2c(OC)c3c(c(-c4ccc(N(C)[C@H]5CCc6c(cccc6OC)C5)nc4)c2cc1OC)COC3=O

stdout:
1. 16.96
2. 48.62
3. 1.64
4. 10.06
5. 60.56
6. 1.00

Provide SI (Selectivity Index, CC50/IC50) for all items below, preserving their order.
1. CCN(CC)c1ncc(-c2c3c(cc4cc(OC)c(OC)cc24)COC3=O)cn1
2. COc1cc2cc3c(c(-c4ccc5nc(C)cc(O)c5c4)c2cc1OC)C(=O)OC3

stdout:
1. 98.94
2. 1.0

Where these numbers come from: patent US20240368104A1
